assay_protocol: Selectivity ratio, EC50 for cytotoxicity against rat L6 cells to EC50 for antitrypanosomal activity against Trypanosoma cruzi Tulahuen strain C2C4 trypomastigotes infected in rat L6 cells
Type: toxicity, cell-based
condition_description: read-out: Ratio EC50
// label = condition met if selectivity ratio is not less than 50, otherwise condition not met

See these solved cases before continuing.
- molecule: "CC(=O)Nc1ccc2[nH]c(=O)n([C@H]3CC[C@@H](C(F)(F)F)CC3)c(=O)c2c1"
  qualitative_label: "condition not met"
- molecule: "CC(=O)Nc1ccc2[nH]c(=O)n([C@H]3CC[C@@H](C(C)C)CC3)c(=O)c2c1"
  qualitative_label: "condition met"
- molecule: "CC(=O)Nc1cnc2[nH]c(=O)n([C@H]3CC[C@@H](C(C)C)CC3)c(=O)c2c1"
  qualitative_label: "condition not met"
- molecule: "CC(=O)Nc1ccc2[nH]c(=O)n(CCc3ccccc3)c(=O)c2c1"
  qualitative_label: "condition met"
- molecule: "CC(=O)Nc1ccc2[nH]c(=O)n(CCC3CCCCC3)c(=O)c2c1"
  qualitative_label: "condition met"

Kindly determine if selectivity ratio recorded for CC(=O)Nc1ccc2[nH]c(=O)n([C@H]3CO[C@H](C(C)(C)C)OC3)c(=O)c2c1 is above or exactly 50.
condition not met

Kindly determine if selectivity ratio recorded for CC(=O)Nc1ccc2[nH]c(=O)n([C@H]3CCO[C@@H](C(C)(C)C)C3)c(=O)c2c1 (racemic) is above or exactly 50.
condition met

Kindly determine if selectivity ratio recorded for CC(=O)Nc1ccc2[nH]c(=O)n([C@H]3CC[C@H](C(F)(F)F)CC3)c(=O)c2c1 is above or exactly 50.
condition not met

Kindly determine if selectivity ratio recorded for CC(=O)Nc1ccc2[nH]c(=O)n(C(CC3CCCCC3)C(N)=O)c(=O)c2c1 (centres undefined) is above or exactly 50.
condition not met

Kindly determine if selectivity ratio recorded for CC(C)[C@H]1CC[C@H](n2c(=O)[nH]c3ccc(N)cc3c2=O)CC1 is above or exactly 50.
condition met

Kindly determine if selectivity ratio recorded for CC(=O)Nc1ccc2[nH]c(=O)n(CCCC(C)C)c(=O)c2c1 is above or exactly 50.
condition not met

Kindly determine if selectivity ratio recorded for CC(C)[C@H]1CC[C@@H](n2c(=O)[nH]c3ncc(N)cc3c2=O)CC1 is above or exactly 50.
condition met

Kindly determine if selectivity ratio recorded for O=c1[nH]c2ccc(-c3ccncc3)cc2c(=O)n1CCC1CCCCC1 is above or exactly 50.
condition not met

Kindly determine if selectivity ratio recorded for CC(=O)Nc1ccc2[nH]c(=O)n(C3CCC(C)(C)CC3)c(=O)c2c1 is above or exactly 50.
condition met

Kindly determine if selectivity ratio recorded for CC(=O)Nc1ccc2[nH]c(=O)n([C@H]3CC[C@@H](NC(=O)OC(C)(C)C)CC3)c(=O)c2c1 is above or exactly 50.
condition not met

Kindly determine if selectivity ratio recorded for CC(=O)Nc1ccc2[nH]c(=O)n([C@H]3CC[C@H](C(C)(C)O)CC3)c(=O)c2c1 is above or exactly 50.
condition not met

Kindly determine if selectivity ratio recorded for CC(C)(C)[C@H]1CC[C@H](n2c(=O)[nH]c3ccc(N)cc3c2=O)CC1 is above or exactly 50.
condition met

Kindly determine if selectivity ratio recorded for CC(=O)Nc1cnc2[nH]c(=O)n([C@H]3CC[C@@H](C(C)(C)C)CC3)c(=O)c2c1 is above or exactly 50.
condition met

---

# selectivity ratio per entry
assay_protocol: Selectivity ratio, EC50 for cytotoxicity against rat L6 cells to EC50 for antitrypanosomal activity against Trypanosoma cruzi Tulahuen strain C2C4 trypomastigotes infected in rat L6 cells
Assay type: toxicity, cell-based
condition_description: read-out: Ratio EC50
API note: the answer field is a bare number with no unit suffix.

Here is how some molecules turned out for selectivity ratio.
- molecule: "CC(=O)Nc1ccc2[nH]c(=O)n(C3CCC(C)CC3)c(=O)c2c1 (mixture of isomers)"
  property: "selectivity ratio"
  val: 39
- molecule: "O=c1[nH]c2ccc(-c3cccnc3)cc2c(=O)n1CCC1CCCCC1"
  property: "selectivity ratio"
  val: 7.4
- molecule: "CC(C)(C)[C@H]1CC[C@H](n2c(=O)[nH]c3ncc(N)cc3c2=O)CC1"
  property: "selectivity ratio"
  val: 95
- molecule: "CC(=O)Nc1ccc2[nH]c(=O)n(CCCc3ccccc3)c(=O)c2c1"
  property: "selectivity ratio"
  val: 18

Below: the item to evaluate.
Lab book: selectivity ratio of CC(=O)Nc1cnc2[nH]c(=O)n([C@H]3CC[C@H](C(C)C)CC3)c(=O)c2c1 noted as 520

---

assay_protocol: Intrinsic clearance in CD1 mouse liver microsomes at 0.5 uM measured up to 30 mins in presence of NADPH by UPLC-MSMS analysis
Format: ADME, Microsome
condition_description: 0.5 h
# intrinsic clearance per entry
The reply should be a number in mL/min/g, with the unit left off.

Here is how some molecules turned out for intrinsic clearance.
- molecule: "CC[C@H]1CC[C@H](n2c(=O)[nH]c3ccc(N)cc3c2=O)CC1"
  property: "intrinsic clearance"
  val: 4.2
- molecule: "CC[C@H]1CC[C@H](n2c(=O)[nH]c3ncc(N)cc3c2=O)CC1"
  property: "intrinsic clearance"
  val: 0.9
- molecule: "CC(C)(C)[C@H]1CC[C@@H](n2c(=O)[nH]c3ccc(N)cc3c2=O)CC1"
  property: "intrinsic clearance"
  val: 3.9
- molecule: "CC[C@H]1CC[C@H](n2c(=O)[nH]c3ncc(NC(C)=O)cc3c2=O)CC1"
  property: "intrinsic clearance"
  val: 0.5
- molecule: "CC(=O)Nc1ccc2[nH]c(=O)n([C@H]3CO[C@@H](C(C)(C)C)OC3)c(=O)c2c1"
  property: "intrinsic clearance"
  val: 7.2

Lab book: intrinsic clearance of CC(=O)Nc1ccc2[nH]c(=O)n([C@H]3CCO[C@@H](C(C)(C)C)C3)c(=O)c2c1 (racemic) noted as 16

Lab book: intrinsic clearance of CC(=O)Nc1ccc2[nH]c(=O)n([C@H]3CC[C@H](C(C)C)CC3)c(=O)c2c1 noted as 3.2

Lab book: intrinsic clearance of CC[C@H]1CC[C@@H](n2c(=O)[nH]c3ncc(NC(C)=O)cc3c2=O)CC1 noted as 2.7

Lab book: intrinsic clearance of CCC[C@H]1CC[C@H](n2c(=O)[nH]c3ccc(NC(C)=O)cc3c2=O)CC1 noted as 1.5

Lab book: intrinsic clearance of CC[C@H]1CC[C@@H](n2c(=O)[nH]c3ncc(N)cc3c2=O)CC1 noted as 1.7

Lab book: intrinsic clearance of CC(C)(C)[C@H]1CC[C@@H](n2c(=O)[nH]c3ncc(N)cc3c2=O)CC1 noted as 1.6

---

assay_protocol: Selectivity ratio, EC50 for cytotoxicity against rat L6 cells to EC50 for antitrypanosomal activity against Trypanosoma cruzi Tulahuen strain C2C4 trypomastigotes infected in rat L6 cells
Assay type: toxicity, cell-based
condition_description: read-out: Ratio EC50
property: selectivity ratio
API note: the answer field is a bare number with no unit suffix.

- molecule_smiles: "CC(=O)Nc1ccc2[nH]c(=O)n([C@H]3CC[C@H](C(C)(C)F)CC3)c(=O)c2c1"
  selectivity ratio: 6.5
- molecule_smiles: "CC(=O)Nc1cnc2[nH]c(=O)n([C@H]3CC[C@H](C(C)(C)C)CC3)c(=O)c2c1"
  selectivity ratio: 80

Below: the item to evaluate.
Lab book: selectivity ratio of N#CCc1ccc2[nH]c(=O)n(CCC3CCCCC3)c(=O)c2c1 noted as 33

---

# selectivity ratio per entry
assay_protocol: Selectivity ratio, EC50 for cytotoxicity against rat L6 cells to EC50 for antitrypanosomal activity against Trypanosoma cruzi Tulahuen strain C2C4 trypomastigotes infected in rat L6 cells
Type: toxicity, cell-based
condition_description: read-out: Ratio EC50
API note: the answer field is a bare number with no unit suffix.

Here is how some compounds turned out for selectivity ratio.
- molecule_smiles: "CC(=O)Nc1ccc2[nH]c(=O)n([C@H]3CC[C@H](OC(C)(C)C)CC3)c(=O)c2c1"
  selectivity ratio: 35
- molecule_smiles: "CC(C)(C)C(=O)Nc1ccc2[nH]c(=O)n(CCC3CCCCC3)c(=O)c2c1"
  selectivity ratio: 1.8

Below: the item to evaluate.
Lab book: selectivity ratio of CC(=O)Nc1ccc2[nH]c(=O)n(Cc3ccccc3)c(=O)c2c1 noted as 9

---

Test system: L6
assay_protocol: Cytotoxicity against rat L6 cells incubated for 70 hrs by resazurin dye based assay
Format: cell-based
condition_description: L6, 70 h
property: pEC50
By convention, pEC50 is the negative base-10 log of a molar concentration.

Here is how some compounds turned out for pEC50.
- molecule_smiles: "CC(=O)Nc1ccc2[nH]c(=O)n(C3CCCCCC3)c(=O)c2c1"
  system_tested: "L6"
  pEC50: 3.95
- molecule_smiles: "COCCn1c(=O)[nH]c2ccc(NC(C)=O)cc2c1=O"
  system_tested: "L6"
  pEC50: 7.00
- molecule_smiles: "CC(=O)Nc1ccc2[nH]c(=O)n(CC3CCCCC3)c(=O)c2c1"
  system_tested: "L6"
  pEC50: 4.27
- molecule_smiles: "CC[C@H]1CC[C@@H](n2c(=O)[nH]c3ccc(N)cc3c2=O)CC1"
  system_tested: "L6"
  pEC50: 4.28
- molecule_smiles: "CC(=O)Nc1ccc2[nH]c(=O)n([C@H]3CC[C@@H](C(F)(F)F)CC3)c(=O)c2c1"
  system_tested: "L6"
  pEC50: 4.74

Lab book: pEC50 of CC(=O)Nc1ccc2[nH]c(=O)n([C@H]3CC[C@@H](C(C)C)CC3)c(=O)c2c1 noted as 4.39

Lab book: pEC50 of CC(C)(C)[C@H]1CC[C@@H](n2c(=O)[nH]c3ncc(N)cc3c2=O)CC1 noted as 4.36

Lab book: pEC50 of N#CCc1ccc2[nH]c(=O)n(CCC3CCCCC3)c(=O)c2c1 noted as 4.15

Lab book: pEC50 of CC[C@H]1CC[C@H](n2c(=O)[nH]c3ccc(NC(C)=O)cc3c2=O)CC1 noted as 4.85
